biological target: 1,25-dihydroxyvitamin D(3) 24-hydroxylase, mitochondrial (Homo sapiens, UniProt Q07973); test: Inhibition of N-terminal MBP-tagged human CYP24A1 expressed in Escherichia coli assessed as reduction in […] activity incubated for 25 mins using Adx, AdR and 1,25(OH)2D3
Sequence (Q07973 whole entry): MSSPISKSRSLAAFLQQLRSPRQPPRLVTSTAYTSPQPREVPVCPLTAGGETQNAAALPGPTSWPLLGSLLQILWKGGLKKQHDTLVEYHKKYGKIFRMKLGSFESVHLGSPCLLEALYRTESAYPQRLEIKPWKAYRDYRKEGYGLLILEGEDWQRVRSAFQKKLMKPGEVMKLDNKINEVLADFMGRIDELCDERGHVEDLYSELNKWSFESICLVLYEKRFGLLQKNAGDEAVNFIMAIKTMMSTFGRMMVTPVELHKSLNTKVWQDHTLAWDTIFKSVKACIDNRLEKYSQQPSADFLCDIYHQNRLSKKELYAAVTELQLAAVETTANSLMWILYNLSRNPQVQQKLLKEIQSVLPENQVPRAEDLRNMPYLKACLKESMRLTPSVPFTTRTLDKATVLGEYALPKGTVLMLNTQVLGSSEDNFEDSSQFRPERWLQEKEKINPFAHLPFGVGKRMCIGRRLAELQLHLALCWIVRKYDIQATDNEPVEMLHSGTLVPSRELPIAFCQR
pIC50: −log10 of the molar value.
Reported pIC50 values follow for various compounds
observedProperty: pIC50

{"smilesText": "Cc1[nH]nc(O)c1C(c1ccc(OCc2ccncc2)cc1)c1c(O)n[nH]c1C", "observedProperty": "pIC50", "reading": 5.60}
{"smilesText": "Cc1[nH]nc(O)c1C(c1cccc(OCc2ccncc2)c1)c1c(O)n[nH]c1C", "observedProperty": "pIC50", "reading": 5.59}

----------
biological target: 1,25-dihydroxyvitamin D(3) 24-hydroxylase, mitochondrial (Homo sapiens, UniProt Q07973); assay: Inhibition of human CYP24A1
pIC50: −log10 of the molar value.

{"compound": "CN(C)CCn1nnnc1SCC(O)(Cn1ccnc1)c1ccc(Cl)cc1Cl (configuration not stated)", "resultQualifier": "<", "pIC50": 5.00}
{"compound": "CN(C)c1cccc2c(S(=O)(=O)NC(Cn3ccnc3)c3ccc(Cl)cc3Cl)cccc12 (configuration not stated)", "resultQualifier": "=", "pIC50": 5.35}

----------
molecular target: 25-hydroxyvitamin D-1 alpha hydroxylase, mitochondrial (Homo sapiens, UniProt O15528); assay: Inhibition of human CYP27B1 expressed in Escherichia coli assessed as reduction in […] activity incubated for 25 mins using Adx, AdR and […]
Sequence (O15528 whole entry): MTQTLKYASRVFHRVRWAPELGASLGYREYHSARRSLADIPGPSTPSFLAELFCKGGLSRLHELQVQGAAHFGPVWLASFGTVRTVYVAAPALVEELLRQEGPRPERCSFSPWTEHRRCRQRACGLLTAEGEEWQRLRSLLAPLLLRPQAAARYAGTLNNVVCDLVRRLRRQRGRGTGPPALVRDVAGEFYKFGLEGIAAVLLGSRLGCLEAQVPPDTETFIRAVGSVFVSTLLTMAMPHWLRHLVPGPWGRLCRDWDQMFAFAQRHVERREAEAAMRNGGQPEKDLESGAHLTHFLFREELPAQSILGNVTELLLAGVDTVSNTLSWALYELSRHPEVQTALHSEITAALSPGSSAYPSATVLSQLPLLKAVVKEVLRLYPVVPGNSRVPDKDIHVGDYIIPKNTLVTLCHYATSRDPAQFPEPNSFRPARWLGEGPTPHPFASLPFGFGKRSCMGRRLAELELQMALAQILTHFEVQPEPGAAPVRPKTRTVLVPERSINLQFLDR
pIC50: −log10 of the molar value.
Reported pIC50 values follow for various compounds
observedProperty: pIC50

{"smilesText": "Cc1[nH]nc(O)c1C(c1cccc(OCc2ccncc2)c1)c1c(O)n[nH]c1C", "testSystem": "25-hydroxyvitamin D-1 alpha hydroxylase, mitochondrial (Homo sapiens, UniProt O15528)", "reading": 6.39}
{"smilesText": "Cc1[nH]nc(O)c1C(c1ccc(OCc2ccncc2)cc1)c1c(O)n[nH]c1C", "testSystem": "25-hydroxyvitamin D-1 alpha hydroxylase, mitochondrial (Homo sapiens, UniProt O15528)", "reading": 6.24}
